Assignment: determine reported inhibition at 1.1 µM for the given compounds.
# EXPERIMENTAL SYSTEM: hERG (Kv11.1, KCNH2) (Homo sapiens, UniProt Q12809)
# Sequence (Q12809 whole entry): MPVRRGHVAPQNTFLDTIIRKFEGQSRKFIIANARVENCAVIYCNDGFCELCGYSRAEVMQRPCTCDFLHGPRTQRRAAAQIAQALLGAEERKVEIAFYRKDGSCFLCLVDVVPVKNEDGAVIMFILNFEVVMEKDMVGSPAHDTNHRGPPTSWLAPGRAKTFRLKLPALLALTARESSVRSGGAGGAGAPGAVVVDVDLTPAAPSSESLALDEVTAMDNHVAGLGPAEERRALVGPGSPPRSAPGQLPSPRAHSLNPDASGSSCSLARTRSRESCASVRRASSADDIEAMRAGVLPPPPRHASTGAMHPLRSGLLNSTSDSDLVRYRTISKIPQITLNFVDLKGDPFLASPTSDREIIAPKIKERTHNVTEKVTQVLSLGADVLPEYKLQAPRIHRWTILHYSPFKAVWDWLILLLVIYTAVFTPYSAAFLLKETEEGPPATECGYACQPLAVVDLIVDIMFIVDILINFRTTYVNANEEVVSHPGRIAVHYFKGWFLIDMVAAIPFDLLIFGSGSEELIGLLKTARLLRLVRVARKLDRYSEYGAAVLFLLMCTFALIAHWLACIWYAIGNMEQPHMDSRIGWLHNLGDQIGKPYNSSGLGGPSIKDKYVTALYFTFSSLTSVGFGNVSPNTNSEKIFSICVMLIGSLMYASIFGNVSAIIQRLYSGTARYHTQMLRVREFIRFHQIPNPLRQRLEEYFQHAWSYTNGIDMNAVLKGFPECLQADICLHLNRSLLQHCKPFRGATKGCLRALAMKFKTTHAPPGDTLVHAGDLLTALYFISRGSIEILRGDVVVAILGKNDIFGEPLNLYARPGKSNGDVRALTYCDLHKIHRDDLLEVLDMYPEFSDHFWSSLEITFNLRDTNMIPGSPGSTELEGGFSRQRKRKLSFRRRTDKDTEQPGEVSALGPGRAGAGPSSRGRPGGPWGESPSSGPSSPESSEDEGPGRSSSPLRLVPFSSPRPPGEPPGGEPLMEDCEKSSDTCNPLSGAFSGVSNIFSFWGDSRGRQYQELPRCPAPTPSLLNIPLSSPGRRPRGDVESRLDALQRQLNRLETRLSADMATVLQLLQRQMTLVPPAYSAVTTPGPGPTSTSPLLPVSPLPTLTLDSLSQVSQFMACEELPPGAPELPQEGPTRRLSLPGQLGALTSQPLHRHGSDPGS
# PROTOCOL: in vitro
# Description: MMV: Malaria Box compounds were tested for inhibition of the human ether a go-go related gene (hERG), Kv11.1 channel, using IonWorks 384-well patch clamp electrophysiology at 1.1uM (3 independent assay plates up to 12 cells per concentration).
Unit % implied. Number only.

// recorded inhibition at 1.1 µM for `Cc1ccccc1OCCSc1nc2ccc(NC(=O)c3ccccc3)cc2s1` : -9

// recorded inhibition at 1.1 µM for `Cc1ccc(-c2cc(C(=O)Nc3ccc(S(=O)(=O)N4CCCCC4)cc3)[nH]n2)c(O)c1` : -1

// recorded inhibition at 1.1 µM for `O=C(Nc1ccc(-c2nc3cc4ccccc4cc3[nH]2)cc1)c1cccc(Br)c1` : -1

// recorded inhibition at 1.1 µM for `Fc1ccc2[nH]c3c(NCCCN4CCOCC4)ncnc3c2c1` : 24

// recorded inhibition at 1.1 µM for O=C(CCc1ccccc1)c1ccccc1OCC(O)CN1CCCCC1 (stereo not given) : 1

// recorded inhibition at 1.1 µM for `Cc1ccc(Cn2c(N3CCC(C(=O)NCc4cccs4)CC3)nc3ccccc32)cc1` : 105

// recorded inhibition at 1.1 µM for `Clc1ccc2[nH]c3c(NCCCN4CCOCC4)ncnc3c2c1` : 29

// recorded inhibition at 1.1 µM for `CCCCN(CCCC)S(=O)(=O)c1ccc(NC(=O)c2ccco2)cc1` : 13

// recorded inhibition at 1.1 µM for O=C(NC1CCCCC1)C(c1cccs1)N(CCc1ccccc1)C(=O)c1ccco1 (stereo not given) : 13

// recorded inhibition at 1.1 µM for COc1ccc(C(=O)NC(c2ccccc2Cl)c2cc(Cl)c3cccnc3c2O)cc1 (stereo not given) : 9
